assay: calcium activation in Ga16-expressing cells, counter-screen for TAAR1 antagonist project, cell-based, fluorescence (AID 651953); details: agonist counterscreen, at 3 µM
Out of some 2,400 compounds screened, about 430 (18%) were called active. Cut-off read from the data, not from the text of the source: active = activation above about 12%; inactive = the rest. Only a sample is shown.
Possible outcomes: active, inactive

chemical_smiles=CCC(=O)Oc1cccc(C(=O)Nc2ccc(-c3nnc(-c4ccco4)o3)cc2)c1 assigned_label=inactive
chemical_smiles=COc1ccc(-c2nn(-c3ccccc3)cc2C(=O)Nc2nccs2)cc1OC assigned_label=inactive
chemical_smiles=Cn1c2ccccc2c(=O)c2c(=O)n(Cc3ccco3)c(COc3ccccc3)nc21 assigned_label=active
chemical_smiles=CCOc1cc(/C=N/NC(=O)c2cc(-c3ccccc3)nc3ccccc23)ccc1O assigned_label=inactive
chemical_smiles=CC(=O)OCCN(CCCn1c(-c2ccncc2)nc2ccccc21)c1nc(-c2ccc(C)cc2)cs1 assigned_label=active
chemical_smiles=O=C(Oc1ccc(-c2nnco2)cc1)c1ccc(F)c(S(=O)(=O)N2CCOCC2)c1 assigned_label=inactive
chemical_smiles=CC/C(=N/Nc1ccccc1)c1cnnc(SC)n1 assigned_label=inactive
chemical_smiles=COC(=O)[C@@]1(Sc2ccc(C)cc2)CC(=O)N(c2cccc(SC)c2)[C@@H]1c1ccccc1 assigned_label=inactive
chemical_smiles=Cc1cccc(NC(=O)c2nc[nH]c2C(=O)NCC(=O)OCc2ccccc2)c1 assigned_label=inactive
chemical_smiles=COc1ccc2[nH]c(=O)c(CN(Cc3cccnc3)S(=O)(=O)c3ccccc3F)cc2c1 assigned_label=inactive

The reported numbers originate from PubChem BioAssay AID651953.
